meta.source: patent US20170002313A1

biological target: PI3K alpha (Homo sapiens); assay: In vitro kinase profile, PI3K alpha_MTOR score; type: biochemical
Sequence (P42336 whole entry, species assumed): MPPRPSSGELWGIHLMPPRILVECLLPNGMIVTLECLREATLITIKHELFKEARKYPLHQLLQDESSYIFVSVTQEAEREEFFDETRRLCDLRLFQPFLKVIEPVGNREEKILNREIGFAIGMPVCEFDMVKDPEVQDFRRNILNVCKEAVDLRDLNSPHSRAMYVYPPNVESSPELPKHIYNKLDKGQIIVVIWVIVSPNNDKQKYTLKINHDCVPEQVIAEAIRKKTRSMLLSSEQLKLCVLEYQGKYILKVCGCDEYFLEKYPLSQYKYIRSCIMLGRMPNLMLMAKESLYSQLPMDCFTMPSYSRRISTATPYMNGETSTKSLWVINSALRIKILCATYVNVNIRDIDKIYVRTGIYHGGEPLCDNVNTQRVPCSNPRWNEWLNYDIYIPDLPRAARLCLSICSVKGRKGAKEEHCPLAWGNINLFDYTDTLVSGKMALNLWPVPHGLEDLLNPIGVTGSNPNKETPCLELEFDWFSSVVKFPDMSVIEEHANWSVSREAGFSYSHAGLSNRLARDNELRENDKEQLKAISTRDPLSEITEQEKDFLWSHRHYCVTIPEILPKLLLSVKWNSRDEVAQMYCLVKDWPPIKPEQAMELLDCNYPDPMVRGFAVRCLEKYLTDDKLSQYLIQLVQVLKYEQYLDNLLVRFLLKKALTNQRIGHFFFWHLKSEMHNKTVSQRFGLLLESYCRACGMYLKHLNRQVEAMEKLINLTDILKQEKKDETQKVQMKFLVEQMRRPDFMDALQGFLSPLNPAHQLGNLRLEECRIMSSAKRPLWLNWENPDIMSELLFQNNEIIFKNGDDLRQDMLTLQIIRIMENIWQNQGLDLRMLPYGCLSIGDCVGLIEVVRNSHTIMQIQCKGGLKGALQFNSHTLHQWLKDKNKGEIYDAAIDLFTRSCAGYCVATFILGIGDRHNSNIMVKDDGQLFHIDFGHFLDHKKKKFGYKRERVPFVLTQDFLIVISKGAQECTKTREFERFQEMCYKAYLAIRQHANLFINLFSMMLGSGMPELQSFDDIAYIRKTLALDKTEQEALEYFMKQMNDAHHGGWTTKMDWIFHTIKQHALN
Sequence (P27986 whole entry partner, species assumed): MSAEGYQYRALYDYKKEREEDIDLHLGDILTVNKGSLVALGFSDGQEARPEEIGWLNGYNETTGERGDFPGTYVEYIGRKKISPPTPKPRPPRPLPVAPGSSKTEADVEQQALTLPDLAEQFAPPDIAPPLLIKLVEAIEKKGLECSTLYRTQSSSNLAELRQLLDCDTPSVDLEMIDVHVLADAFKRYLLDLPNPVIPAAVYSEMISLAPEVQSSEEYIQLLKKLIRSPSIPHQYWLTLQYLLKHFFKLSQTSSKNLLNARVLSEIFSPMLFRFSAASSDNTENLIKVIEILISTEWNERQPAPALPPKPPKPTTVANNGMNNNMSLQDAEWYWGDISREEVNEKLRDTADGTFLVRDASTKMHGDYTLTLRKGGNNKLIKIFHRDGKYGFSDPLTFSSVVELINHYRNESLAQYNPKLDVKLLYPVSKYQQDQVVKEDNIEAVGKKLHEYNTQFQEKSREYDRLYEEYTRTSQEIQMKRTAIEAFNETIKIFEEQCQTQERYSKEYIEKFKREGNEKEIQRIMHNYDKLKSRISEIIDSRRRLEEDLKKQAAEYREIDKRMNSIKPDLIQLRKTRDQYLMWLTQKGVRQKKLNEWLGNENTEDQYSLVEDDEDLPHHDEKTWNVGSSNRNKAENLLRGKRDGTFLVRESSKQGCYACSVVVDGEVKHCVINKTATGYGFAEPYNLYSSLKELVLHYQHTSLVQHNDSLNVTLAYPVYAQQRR
quantity name: PI3K alpha_MTOR score: PI3K alpha

Observe how each entry below is paired with its result.
>>> observed_measurement("Oc1cccc(-c2nc(N3CCOCC3)c3oc4ncccc4c3n2)c1")
"PI3K alpha+++_MTOR+++"
>>> observed_measurement("COc1ccc(-c2ccc3c(N4CCOCC4)nc(N4C[C@@H](C)O[C@@H](C)C4)nc3n2)cc1CO")
"+"
>>> observed_measurement("Nc1cc(C(F)(F)F)c(-c2cc(N3CCOCC3)nc(N3CCOCC3)n2)cn1")
"PI3K alpha+++_MTOR+++"
>>> observed_measurement("COc1ccc2c(c1OC)N=C(NC(=O)c1cccnc1)N1CCN=C21")
"+++"
>>> observed_measurement("COC(=O)Nc1ccc(-c2nc(N3CCOCC3)c3cnn(C4CCN(Cc5cccnc5)CC4)c3n2)cc1")
"+"

Next:
PI3K alpha_MTOR score: PI3K alpha recorded for this compound, COc1ncc(-c2ccc3nccc(-c4ccnnc4)c3c2)cc1NS(=O)(=O)c1ccc(F)cc1F , is PI3K alpha+++_MTOR+++
